Values were extracted from patent US20260151494A1.

Quick reference: RLU of the listed items.
- System: T1, human CD71 extracellular domain (CD71-ECD) (human, UniProt P02786 89-760)
- T1 construct: also called hCD71; human CD71-ECD
- T1 sequence (P02786 89-760): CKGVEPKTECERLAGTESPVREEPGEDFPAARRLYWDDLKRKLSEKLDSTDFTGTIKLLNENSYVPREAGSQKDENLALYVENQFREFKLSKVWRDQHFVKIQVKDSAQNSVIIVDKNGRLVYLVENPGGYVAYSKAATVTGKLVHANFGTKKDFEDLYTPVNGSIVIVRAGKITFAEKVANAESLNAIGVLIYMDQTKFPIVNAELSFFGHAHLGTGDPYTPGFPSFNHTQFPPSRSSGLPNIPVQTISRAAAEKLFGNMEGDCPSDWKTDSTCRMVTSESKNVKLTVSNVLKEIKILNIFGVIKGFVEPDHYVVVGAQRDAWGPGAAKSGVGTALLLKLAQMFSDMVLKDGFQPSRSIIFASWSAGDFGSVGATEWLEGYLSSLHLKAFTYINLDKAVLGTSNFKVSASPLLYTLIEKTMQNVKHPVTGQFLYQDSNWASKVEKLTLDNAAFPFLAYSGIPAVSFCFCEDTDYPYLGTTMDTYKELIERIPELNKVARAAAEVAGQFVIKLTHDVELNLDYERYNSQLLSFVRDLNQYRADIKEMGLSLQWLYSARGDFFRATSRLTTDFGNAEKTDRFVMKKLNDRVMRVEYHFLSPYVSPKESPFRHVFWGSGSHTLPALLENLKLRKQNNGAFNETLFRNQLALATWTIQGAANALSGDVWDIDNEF
- Test protocol: primary ELISA; further: test concentration or dose not given here
Write it as a number; the unit RLU goes unstated.

| Binder | Measured parameter | Unit abbreviation | Assay value |
| --- | --- | --- | --- |
| CD71-binding FN3 domain SEQ ID NO: 275 (designed binder) MSLPAPKNLVVSRVTEDSARLSWTAPDAAFDSFEIGYFENLYLGEAIVLTVPGSERSYDLTGLKPGTEYWVQIGGVKGGNWSAPLVAEFTT | RLU | RLU | 3.4e+06 |
| CD71-binding FN3 domain SEQ ID NO: 240 (designed binder) MSLPAPKNLVVSRVTEDSARLSWTAPDAAFDSFHIWYFEKANEGEAIPLVVPGSERSYDLTGLKPGTEYDVDIGGVKGGAWSIPLGARFTT | RLU | RLU | 3.72e+06 |
| CD71-binding FN3 domain SEQ ID NO: 285 (designed binder) MSLPAPKNLVVSRVTEDSARLSWTATDAAFDSFEIGYWENAYKGEAIVLTVPGSERSYDLTGLKPGTEYVVFIGGVKGGVWSVPLSAIFTT | RLU | RLU | 2.81e+06 |

What does the record list as RLU for CD71-binding FN3 domain SEQ ID NO: 298 (designed binder) MSLPAPKNLVVSRVTEDSARLSWTAPDAAFDSFEIGYFENLYLGEAIVLTVPGSERSYDLTGLKPGTEYWVQIGGVKGDNWSAPLSAIFTT ?
3.67e+06

What does the record list as RLU for CD71-binding FN3 domain SEQ ID NO: 320 (designed binder) MSLPVPKNLVVSRVTEDSARLSWTAPDAAFDSFEIGYWENAYKGEAIVLTVPGSERSYDLTGLKPGTEYWVQIGGVKGGNWSAPLSAIFTT ?
2.36e+06

What does the record list as RLU for CD71-binding FN3 domain SEQ ID NO: 294 (designed binder) MSLPAPKNLVVSRVTEDSARLSWTAPDAAFDSFFIGYLEPQPLGEAIHLFVPGSERSYDLTGLKPGTEYNVTIQGVKGGFPSEPLIASFTT ?
6.48e+06

What does the record list as RLU for CD71-binding FN3 domain SEQ ID NO: 284 (designed binder) MSLPAPKNLVVSRVTEDSARLSWTAPDAAFDSFEIGYWENAYKGEAIVLTVPGSERSYDLTGLKPGTEYMVFIGGVKGGVWSVPLSAIFTT ?
2.37e+06

What does the record list as RLU for CD71-binding FN3 domain SEQ ID NO: 283 (designed binder) MSLPAPKNLVVSRVTEDSARLSWTAPDAAFDSFEIAYQELSLWGEAIVLTVPGSERSYDLTGLKPGTEYYVHIGGVKGGIWSSPLSAYSTT ?
2.07e+06

What does the record list as RLU for CD71-binding FN3 domain SEQ ID NO: 279 (designed binder) MSLPAPKNLVVSRVTEDSARLSWTAPDAAFDSFFIGYLEPQPPGEAIHLYVPGSERSYDLTGLKPGTEYNVTIQGVKGGNWSAPLSAIFTT ?
3.66e+06
